These entries and their values trace back to patent US9994570B2.

# study_target: human orexin-2 receptor (Homo sapiens)
# Construct: expressed in transfected cells; host or cells: CHO cells (grown under G418 selection)
# Sequence (O43614 1-444): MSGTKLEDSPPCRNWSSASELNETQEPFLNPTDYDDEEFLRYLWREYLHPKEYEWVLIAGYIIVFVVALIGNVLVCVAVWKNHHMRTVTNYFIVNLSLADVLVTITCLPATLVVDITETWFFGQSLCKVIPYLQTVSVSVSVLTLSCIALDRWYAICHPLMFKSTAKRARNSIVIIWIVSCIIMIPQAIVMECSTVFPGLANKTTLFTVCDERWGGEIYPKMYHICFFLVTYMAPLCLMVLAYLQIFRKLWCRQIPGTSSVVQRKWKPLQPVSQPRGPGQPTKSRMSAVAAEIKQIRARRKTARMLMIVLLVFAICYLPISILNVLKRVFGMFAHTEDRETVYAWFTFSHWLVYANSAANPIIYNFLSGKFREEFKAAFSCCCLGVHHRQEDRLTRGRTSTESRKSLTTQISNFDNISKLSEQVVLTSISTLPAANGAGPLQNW
# experimental_protocol: FLIPR Ca2+ flux assay, OX2R
# Assay type: cell-based
# experimental_conditions: CHO cells expressing the human orexin-2 receptor; agonist 70 pM Ala-6,12 orexin-A
# Experimental: The utility of the compounds in accordance with the present invention as orexin receptor OX1R and/or OX2R antagonists may be readily determined without undue experimentation by methodology well known in the art, including the “FLIPR Ca^2+ Flux Assay” (Okumura et al., Biochem. Biophys. Res. Comm. 280:976-981, 2001). In a typical experiment the OX1 and OX2 receptor antagonistic activity of the compounds of the present invention was determined in accordance with the following experimental method. […]
Recorded IC50 values for a group of compounds are listed next.
quantity_name: IC50 (nM)

{"compound": "COCc1ccccc1C(=O)N1CC2CC(C1)N(c1nc(C)cc(C)n1)C2 (centres unmarked)", "quantity_name": "IC50", "measured_value": 46}
{"compound": "Cc1cc(C)nc(N2CC3CC2CN(C(=O)c2ccccc2CC(F)(F)F)C3)n1 (centres unmarked)", "quantity_name": "IC50", "measured_value": 17}
{"compound": "Cc1cc(C)nc(N2CC3CC2CN(C(=O)c2ccccc2C2(C#N)CC2)C3)n1 (centres unmarked)", "quantity_name": "IC50", "measured_value": 13}
{"compound": "Cc1cc(C)nc(N2CC3CC2CN(C(=O)c2cccnc2C2CC2)C3)n1 (centres unmarked)", "quantity_name": "IC50", "measured_value": 47}
{"compound": "COc1ccc(C(=O)N2CC3CC(C2)N(c2nc(C)cc(C)n2)C3)c(C2CC2)n1 (centres unmarked)", "quantity_name": "IC50", "measured_value": 41}
{"compound": "Cc1cc(C)nc(N2CC3CC2CN(C(=O)c2cccnc2OCC2CC2(F)F)C3)n1 (centres unmarked)", "quantity_name": "IC50", "measured_value": 12}
{"compound": "Cc1cc(C#N)nc(N2CC3CC2CN(C(=O)c2ccccc2CS(C)(=O)=O)C3)n1 (centres unmarked)", "quantity_name": "IC50", "measured_value": 61}
{"compound": "Cc1cc(C)nc(N2CC3CC2CN(C(=O)c2cccnc2OCC(F)(F)C(F)F)C3)n1 (centres unmarked)", "quantity_name": "IC50", "measured_value": 5}
